The reported measurements were obtained from PubChem BioAssay (NCATS).

Target: Atrial natriuretic peptide receptor 1 (Homo sapiens) (UniProt P16066)
Sequence (P16066 whole entry, looked up): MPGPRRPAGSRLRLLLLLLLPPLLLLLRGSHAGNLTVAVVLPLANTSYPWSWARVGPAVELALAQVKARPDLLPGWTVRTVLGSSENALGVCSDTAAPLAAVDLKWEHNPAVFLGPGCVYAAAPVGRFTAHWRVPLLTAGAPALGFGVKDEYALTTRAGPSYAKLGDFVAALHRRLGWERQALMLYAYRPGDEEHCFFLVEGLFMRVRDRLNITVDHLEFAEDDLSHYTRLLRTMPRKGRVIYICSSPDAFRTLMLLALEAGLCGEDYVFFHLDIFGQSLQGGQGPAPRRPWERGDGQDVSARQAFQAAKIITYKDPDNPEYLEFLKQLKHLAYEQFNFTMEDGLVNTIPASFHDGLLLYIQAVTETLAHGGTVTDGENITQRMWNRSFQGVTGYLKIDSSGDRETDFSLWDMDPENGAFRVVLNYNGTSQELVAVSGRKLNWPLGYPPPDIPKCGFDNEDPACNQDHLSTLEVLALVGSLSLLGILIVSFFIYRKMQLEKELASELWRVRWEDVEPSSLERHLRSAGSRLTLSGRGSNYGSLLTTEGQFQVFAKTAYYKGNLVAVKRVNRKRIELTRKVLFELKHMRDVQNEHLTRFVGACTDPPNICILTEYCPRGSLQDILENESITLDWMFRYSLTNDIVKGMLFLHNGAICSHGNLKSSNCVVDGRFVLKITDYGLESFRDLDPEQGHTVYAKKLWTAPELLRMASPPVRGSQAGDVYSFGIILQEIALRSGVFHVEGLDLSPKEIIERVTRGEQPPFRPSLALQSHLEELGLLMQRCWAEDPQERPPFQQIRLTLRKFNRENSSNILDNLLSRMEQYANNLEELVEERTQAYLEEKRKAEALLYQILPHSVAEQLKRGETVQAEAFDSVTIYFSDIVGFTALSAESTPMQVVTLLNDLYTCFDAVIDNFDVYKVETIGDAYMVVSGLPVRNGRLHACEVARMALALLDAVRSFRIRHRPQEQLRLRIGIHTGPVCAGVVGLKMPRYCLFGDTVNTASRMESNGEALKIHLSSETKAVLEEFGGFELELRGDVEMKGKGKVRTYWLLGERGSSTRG
Experiment: Natriuretic polypeptide receptor (hNpr1) antagonism - Pilot screen (AID 1347049);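 also: HEK293 cells with hNpr1 and GloSensor cGMP luciferase stimulated by 0.1 nM hNppA; agonist-evoked cGMP luminescence read 20 min after hNppA addition; % is scaled to controls: 0 for no effect and ±100 for the full control effect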
Settings: hNpr1 cells, antagonist mode cGMP read-out; series mostly up to 57.5 µM
Results filed as inconclusive are left out. Active and inactive are the calls of the source. Calls follow the shape of the full dose curve.
Select the correct class. Options are 1 (active), 0 (inactive) and nothing else.

compound	assigned_class
CC(C)NCC(O)COc1cccc2ccccc12 (stereo not drawn)	0
Fc1ccc(C(OCCCc2cnc[nH]2)c2ccc(F)cc2)cc1	0
Cc1ccc(S(=O)(=O)/C=C/C#N)cc1	0
CC(C)NC[C@@H](O)c1ccc(O)c(O)c1	0
Nc1nc(SCc2ccc([N+](=O)[O-])cc2)c2ncn([C@@H]3O[C@H](CO)[C@@H](O)[C@H]3O)c2n1	0

INPUT: Lab log entry: NCCCS(=O)(=O)O — outcome as called in the assay?
OUTPUT: 0

INPUT: Lab log entry: NC[C@@H]1O[C@H](C23CC4CC(CC(C4)C2)C3)Cc2c1ccc(O)c2O — outcome as called in the assay?
OUTPUT: 0

INPUT: Query: recorded result category for CC(=O)N[C@H](C(=O)O)C(C)(C)SN=O in this test
OUTPUT: 0

INPUT: Tell me the recorded outcome of this test for C[N+](C)(CCCCCC[N+](C)(C)CCCN1C(=O)c2cccc3cccc(c23)C1=O)CCCN1C(=O)c2cccc3cccc(c23)C1=O .
OUTPUT: 0

INPUT: Write down the call the test reported for this compound. Item: CC(COc1ccc(/C=C/c2ccccc2)cc1)[N+](C)(C)C (stereo not drawn)
OUTPUT: 0

INPUT: Just curious, what result did O=C(O)CC[C@@H](C(=O)O)N1C(=O)c2ccccc2C1=O get here?
OUTPUT: 0

###

Reported max response by item:
Assay: qHTS Assay for Lipid Storage Modulators (AID 1519)
Conditions: Drosophila S3 cells, BODIPY lipid droplet/cell ratio, laser cytometry; measured here: cell count channel max response; cells loaded with oleic acid
Records with an inconclusive call do not appear.
Quick reminder: number only, in %, skip the unit.

Previously resolved entries follow.
compound	data_value
C[C@@H](CN1CCC(Cc2ccccc2)CC1)[C@@H](O)c1ccc(O)cc1	15.4
NCCSSCCN	9.22
CCCCCCCCCCCCCCCCCCNC(=O)OCC(COP(=O)([O-])OCC[n+]1ccsc1)OC (stereo not given)	-16.2
O=c1[nH]c2cc([N+](=O)[O-])c([N+](=O)[O-])cc2[nH]c1=O	-1.11

INPUT: Answer with the recorded max response of COc1cc2nc(N3CCN(C(=O)OCc4ccccc4)C(C(=O)NC(C)(C)C)C3)nc(N)c2cc1OC (stereo not given) only.
OUTPUT: 38.8

INPUT: Supply max response value. Item: NC(CCCP(=O)(O)O)C(=O)O (stereo not given)
OUTPUT: -11.8

###

Target: M-phase phosphoprotein 8 (Homo sapiens) (UniProt Q99549)
Sequence (Q99549 whole entry, looked up): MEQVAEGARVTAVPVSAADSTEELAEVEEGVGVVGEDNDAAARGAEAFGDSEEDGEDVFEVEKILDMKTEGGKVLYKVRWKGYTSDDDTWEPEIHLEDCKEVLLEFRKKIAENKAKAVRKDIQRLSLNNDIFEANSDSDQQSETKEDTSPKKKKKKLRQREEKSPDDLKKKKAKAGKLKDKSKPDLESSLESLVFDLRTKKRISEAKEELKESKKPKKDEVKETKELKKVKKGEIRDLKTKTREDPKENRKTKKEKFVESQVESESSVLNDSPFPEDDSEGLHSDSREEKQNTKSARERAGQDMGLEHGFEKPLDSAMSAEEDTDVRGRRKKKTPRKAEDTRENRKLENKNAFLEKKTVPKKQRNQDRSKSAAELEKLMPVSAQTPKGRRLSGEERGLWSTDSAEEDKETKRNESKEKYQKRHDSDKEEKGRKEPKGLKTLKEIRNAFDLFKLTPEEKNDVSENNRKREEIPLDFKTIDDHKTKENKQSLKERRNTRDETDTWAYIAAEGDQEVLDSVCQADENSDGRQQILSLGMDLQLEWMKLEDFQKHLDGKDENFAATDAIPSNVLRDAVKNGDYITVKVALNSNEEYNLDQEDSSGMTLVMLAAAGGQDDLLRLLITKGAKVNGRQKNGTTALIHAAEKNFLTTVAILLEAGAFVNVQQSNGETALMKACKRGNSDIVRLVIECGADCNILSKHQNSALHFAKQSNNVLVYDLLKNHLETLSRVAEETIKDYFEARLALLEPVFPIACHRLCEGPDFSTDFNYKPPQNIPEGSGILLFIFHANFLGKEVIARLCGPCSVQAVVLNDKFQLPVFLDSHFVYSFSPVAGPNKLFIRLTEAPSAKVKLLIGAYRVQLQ
Assay: qHTS Validation Assay for Inhibitors for MPP8 Chromodomain Interactions with Methylated Histone Tails (AID 488949);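 also: 50 nM MPP8 with 50 nM peptide preformed then compounds added for 30 min; AlphaScreen signal from MPP8 chromodomain bound to biotinylated H3K9me3 peptide; top concentration of the series differs between compounds; % is scaled to controls: 0 for no effect and ±100 for the full control effect; nearly all actives have a fitted effect of over 55% in size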
Settings: AlphaScreen MPP8 binding to H3K9me3 peptide; series mostly up to 57.1 µM
Records with an inconclusive call do not appear. Active and inactive are the calls of the source. The call rests on the fitted dose curve; in most records, active means well fitted inhibition curve with a large enough effect; inconclusive means small, poorly fitted or top-dose-only effect; inactive means no such curve, though single readings can be large or run the other way.
A correct response names exactly one class from active, inactive

compound	assigned_class
CNC(=O)[C@H]1O[C@@H](n2cnc3c(NCc4cccc(I)c4)ncnc32)[C@H](O)[C@@H]1O	inactive
Cc1nc2sccn2c(=O)c1CCN1CCC(=C(c2ccccc2)c2ccc(F)cc2)CC1	inactive
NC(=O)C(=O)O	inactive
Cn1c(=O)c2[nH]c(-c3ccccc3)nc2n(C)c1=O	inactive
COC1=C(OC)C(=O)c2ccccc2C1=O	inactive

INPUT: For this compound, state the assay outcome: CNCC[C@H](Oc1ccc(C(F)(F)F)cc1)c1ccccc1
OUTPUT: inactive

INPUT: What call does the record list for O=C1C(SCCO)=C(SCCO)C(=O)c2ccccc21 ?
OUTPUT: inactive

INPUT: # outcome recorded in this test, key = O=C(O)CC1CCCc2ccccc2C1O (configuration not stated)
OUTPUT: inactive

INPUT: So what was the verdict on O=C1NC(=O)/C(=C/c2ccc3nccnc3c2)S1 in this test?
OUTPUT: inactive

INPUT: Outcome? CN(C)c1nc2c(Br)c(Br)c(Br)c(Br)c2[nH]1
OUTPUT: inactive

INPUT: Recorded test outcome, item Cn1cc(C2=C(c3ccc(Cl)cc3Cl)C(=O)NC2=O)c2ccccc21
OUTPUT: inactive

INPUT: Lab log entry: CNc1ncnc2c1ncn2[C@@H]1O[C@H](CO)[C@@H](O)[C@H]1O — outcome as called in the assay?
OUTPUT: inactive
